Please provide measured log fold change Tl+ flux for the entries that follow.
Tested on: F380Y/beta2Delta
Experiment: BK channel mutant inhibitors and activators – cell-based, U2OS BacMam, thallium flux, beta subunits, selectivity assay, profiling panel (AID 1259406);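 also: initial slope of Thallos dye fluorescence rise after thallium is added; log ratio against the mean of 0.3% DMSO vehicle wells on the same plate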
Conditions: U2OS BacMam BK variants, at 30 µM
Could you respond with only the numeric value?

GET /values?readout=log fold change Tl+ flux&item= "CNS(=O)(=O)Cc1ccc2[nH]cc(CCN(C)C)c2c1" 0.0184

Same for "CN(CCCN1c2ccccc2CCc2ccccc21)CC(=O)c1ccc(Cl)cc1" -0.0465

Same for "COc1cc(C)c(Cc2cnc(N)nc2N)cc1OC" 0.0137

Same for COC(=O)C1=C(C)NC(C)=C(C(=O)OC(C)C)C1c1cccc2nonc12 (stereo not drawn) -0.0966

Same for "CCCN1CCCC[C@H]1C(=O)Nc1c(C)cccc1C" 0.0505

Same for "O=C1[C@H]2CCCC[C@H]2C(=O)N1CCCCN1CCN(c2nsc3ccccc23)CC1" 0.0368

Same for "CCOC(=O)O[C@]1(C(=O)OCCl)CC[C@H]2[C@@H]3CCC4=CC(=O)C=C[C@]4(C)[C@H]3[C@@H](O)C[C@@]21C" -0.0465

Same for "C#C[C@]1(O)CC[C@H]2[C@@H]3CCc4cc(OC)ccc4[C@H]3CC[C@@]21C" -0.0353

Same for "Cc1ccsc1C(=CCCN1CCC[C@@H](C(=O)O)C1)c1sccc1C" 0.0383

Same for "CC1CCN(CCCC(=O)c2ccc(F)cc2)CC1" 0.0189

Same for "CN(CCOc1ccc(NS(C)(=O)=O)cc1)CCc1ccc(NS(C)(=O)=O)cc1" 0.0285

Same for CCc1c(C)[nH]c2c1C(=O)C(CN1CCOCC1)CC2 (stereo not drawn) 0.0445

Same for "Cn1c(NCCN(CCO)CCCc2ccc([N+](=O)[O-])cc2)cc(=O)n(C)c1=O" -0.007

Same for "C[C@@H]1C[C@H]2[C@@H]3C[C@H](F)C4=CC(=O)C(Cl)=C[C@]4(C)[C@@]3(F)[C@@H](O)C[C@]2(C)[C@@]1(O)C(=O)CO" -0.0145

Same for COc1cc(C(=O)NC2CCCNC2)cc(OC)c1OC (stereo not drawn) -0.0479

Same for COc1cc2c(cc1OC)C(=O)C(CC1CCN(Cc3ccccc3)CC1)C2 (stereo not drawn) 0.0718

Same for CC(C)NCC(O)COc1ccc(COCCOC(C)C)cc1 (stereo not drawn) 0.00366

Same for "Cc1[nH]c(=O)c(C#N)cc1-c1ccncc1" -0.015

Same for "C#C[C@]1(O)CC[C@H]2[C@@H]3CCc4cc(O)ccc4[C@H]3CC[C@@]21C" -0.0272

Same for CC(C)NCC(O)COc1ccc(CCOCC2CC2)cc1 (stereo not drawn) 0.0281

Same for COc1cc2nc(N3CCN(C(=O)C4CCCO4)CC3)nc(N)c2cc1OC (stereo not drawn) -0.00319

Same for "OCc1cccnc1" 0.033

Same for "CC(=O)O[C@H]1C[C@@H]2CC[C@@H]3[C@H](CC[C@@]4(C)[C@H]3C[C@H]([N+]3(C)CCCCC3)[C@@H]4OC(C)=O)[C@@]2(C)C[C@@H]1N1CCCCC1" 0.00769

Same for "CC(C)(C#N)c1cc(Cn2cncn2)cc(C(C)(C)C#N)c1" 0.0269

Same for "CC(C)(C)NC(=O)[C@@H]1CN(Cc2cccnc2)CCN1C[C@@H](O)C[C@@H](Cc1ccccc1)C(=O)N[C@H]1c2ccccc2C[C@H]1O" -0.0728

Same for "NS(=O)(=O)c1cc(C(=O)O)c(NCc2ccco2)cc1Cl" -0.0211

Same for "COc1ccc(CN2CCN(C(c3ccc(F)cc3)c3ccc(F)cc3)CC2)c(OC)c1OC" -0.015

Same for "COC(=O)C1=C(C)NC(C)=C(C(=O)O[C@@H]2CCCN(Cc3ccccc3)C2)[C@@H]1c1cccc([N+](=O)[O-])c1" -0.042

Same for COc1ccc2nc(S(=O)Cc3ncc(C)c(OC)c3C)[nH]c2c1 (stereo not drawn) 0.0168

Same for "Nc1nc2c(ncn2COC(CO)CO)c(=O)[nH]1" 0.0461

Same for "CC(C)(C(=O)c1cccnc1)c1cccnc1" -0.0492

Same for "COc1cc(C)nc(-n2nc(C)cc2OC)n1" -0.0214

Same for "Cc1cnc(NC(=O)C2=C(O)c3ccccc3S(=O)(=O)N2C)s1" 0.0267

Same for "c1cnc(N2CCN(Cc3ccc4c(c3)OCO4)CC2)nc1" -0.0184

Same for "O=C(O)CCNC(=O)c1ccc(N=Nc2ccc(O)c(C(=O)O)c2)cc1" -0.00246

Same for CCN1CCCC1CNC(=O)c1cc(S(=O)(=O)CC)c(N)cc1OC (stereo not drawn) 0.0211

Same for "CN1CCC(=C2c3ccccc3CC(=O)c3sccc32)CC1" 0.00285

Same for "Cc1nc2n(c(=O)c1CCN1CCC(c3noc4cc(F)ccc34)CC1)CCCC2" -0.0407

Same for "O=C(NCCN1CCOCC1)c1ccc(Cl)cc1" -0.0313

Same for "O=C1N(c2ccccc2)c2ccccc2C1(Cc1ccncc1)Cc1ccncc1" -0.0915

Same for "CN1CCC(=C2c3ccccc3CCc3sccc32)CC1" -0.0147

Same for "COc1cc(OC)c(C(=O)CCCN2CCCC2)c(OC)c1" -0.00493

Same for "CN(C)CC[C@@H](c1ccc(Cl)cc1)c1ccccn1" 0.0413
